- TEST_SUMMARY: chemical genetic growth profiling, strain panel (AID 1159580);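 also: tested at 20 µM; growth read once vehicle control cultures reached saturation at 30 °C; 1 = growth at the plate median or of vehicle wells; lower values mean less growth of the strain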
- COND: S. cerevisiae deletion strains, growth OD, locus YHR079C, strain IRE1, stronger effect = lower value
Hit rate of the full screen: of about 5,500 compounds, about 2,000 (36%) were called active. Another 18% or so got no clear call; they are omitted. The list shows a part of the results.
PROPERTY_LABEL: normalized growth

• COc1cc(-c2coc3cc(O[C@@H]4O[C@H](CO)[C@@H](O)[C@H](O)[C@H]4O)c(OC)c(O)c3c2=O)cc(O)c1OC = 1.01
• CC(=O)Oc1cccc2c1C(=O)c1c(OC(C)=O)cc(C(=O)O)cc1C2=O = 0.964
• CN(C)CCc1c[nH]c2ccc(C[C@H]3COC(=O)N3)cc12 = 0.986
• CCCCCCCCCCCCCCCCCCOCC(O)CO (centres undefined) = 0.993
• CNS(=O)(=O)Cc1ccc2[nH]cc(CCN(C)C)c2c1 = 1.05
• O=C(CCc1ccc(O)cc1)c1c(O)cc(O)cc1O[C@@H]1O[C@H](CO)[C@@H](O)[C@H](O)[C@H]1O = 0.972
• OC(c1cc(C(F)(F)F)nc2c(C(F)(F)F)cccc12)C1CCCCN1 (centres undefined) = 0.984
• NC[C@H]1O[C@H](O[C@H]2[C@H](O)[C@@H](O[C@H]3O[C@H](CO)[C@@H](O)[C@H](N)[C@H]3O)[C@H](N)C[C@@H]2N)[C@H](N)C[C@@H]1O = 0.985
• NC(=O)N1c2ccccc2C=Cc2ccccc21 = 0.99

###

Measured normalized growth of individual entries
- TEST_SUMMARY: chemical genetic growth profiling, strain panel (AID 1159580);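 also: tested at 20 µM; growth read once vehicle control cultures reached saturation at 30 °C; 1 = growth at the plate median or of vehicle wells; lower values mean less growth of the strain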
- COND: S. cerevisiae deletion strains, growth OD, locus YPL078C, strain atp4, stronger effect = lower value
Among all 5,500 compounds or so, about 2,000 (36%) were called active. Roughly 18% stayed inconclusive and do not appear here. Some of the results follow. Where a SMILES comes first, the peptide text is derived from it. [ ]: non-standard residue; d: D form. Orn = NCCC[CH](N)C(=O)O
PROPERTY_LABEL: normalized growth

- O=c1c(O)c(-c2ccc(O)c(O)c2)oc2cc(O)ccc12: 1.01 (inactive)
- CCN(CC)CCNC(=O)c1cc(Cl)c(N)cc1OC: 0.975 (inactive)
- O=C(NC1CCCCC1)NC1CCCCC1: 0.981 (inactive)
- C[C@]12CCC3C(CC[C@H]4C[C@H](OS(=O)(=O)O)CC[C@]34C)C1CCC2=O (stereo partly drawn): 1.03 (inactive)
- C[C@]12CCC(=O)C=C1CCC1C2[C@@H](O)C[C@@]2(C)C1CC[C@]2(O)C(=O)COC(=O)CCC(=O)O (stereo partly drawn): 1 (inactive)
- CC(=O)O[C@H]1CC[C@]2(C)C3CC[C@@]4(C)C(CC5O[C@@]6(CCC(C)CO6)[C@@H](C)C54)C3CC[C@@H]2C1 (stereo partly drawn): 1.04 (inactive)
- C#C[C@]1(O)CCC2C3CCC4=Cc5oncc5C[C@]4(C)C3CC[C@@]21C (stereo partly drawn): 0.902 (inactive)
- COc1ccc(-c2oc3ccccc3c(=O)c2O)cc1OC: 0.74 (active)
- COc1c2ccoc2cc2oc(C)cc(=O)c12: 0.992 (inactive)
- CC1(C)C(=O)[C@@H]2C[C@@]3(O)C4=CC(=O)O[C@@H](c5ccoc5)[C@]4(C)CCC3[C@@](C)(C2=O)[C@H]1CC(=O)O (stereo partly drawn): 1.01 (inactive)
- CC1=C(O)C(=O)C=C2C1=CC=C1[C@@]2(C)CC[C@@]2(C)[C@@H]3C[C@](C)(C(=O)O)CC[C@]3(C)CC[C@]12C: 0.528 (active)
- COc1cc(-c2oc3cc(O)ccc3c(=O)c2O)ccc1O: 0.927 (inactive)
- CC(C)CC1NC(=O)C(CCCN)NC(=O)C(C(C)C)NC(=O)C2CCCN2C(=O)C(Cc2ccccc2)NC(=O)C(CC(C)C)NC(=O)C(CCCN)NC(=O)C(C(C)C)NC(=O)C2CCCN2C(=O)C(Cc2ccccc2)NC1=O (stereo not drawn) (cyclo(FPV[Orn]LFPV[Orn]L); configuration not given here): 1.02 (inactive)
- CC(=O)OC1CCC2(C)C3CC(=O)C4(C)C(CC5OC6(CCC(C)CO6)[C@@H](C)C54)C3CC[C@H]2C1 (stereo partly drawn): 0.979 (inactive)
- CC(=O)Oc1cc2c(c(C)c1OC(C)=O)CC1OC13C2(C)CCC1(C)C2CC(C)(C(=O)O)CCC2(C)CCC13C (stereo not drawn): 0.99 (inactive)
- CC(=O)OCC(=O)[C@@]1(O)CCC2C3CCC4=CC(=O)CC[C@]4(C)C3[C@@H](O)C[C@@]21C (stereo partly drawn): 1.04 (inactive)
- CC[C@H]1CN2CCc3cc(OC)c(OC)cc3C2C[C@@H]1CC1NCCc2cc(OC)c(OC)cc21 (stereo partly drawn): 1 (inactive)
- COc1ccc2c(=O)ccoc2c1: 1.02 (inactive)
